Source of measurements: ChEMBL document CHEMBL1138301

- experimental.target: Histone deacetylase 1 (Homo sapiens, UniProt Q13547)
- Sequence (Q13547 whole entry): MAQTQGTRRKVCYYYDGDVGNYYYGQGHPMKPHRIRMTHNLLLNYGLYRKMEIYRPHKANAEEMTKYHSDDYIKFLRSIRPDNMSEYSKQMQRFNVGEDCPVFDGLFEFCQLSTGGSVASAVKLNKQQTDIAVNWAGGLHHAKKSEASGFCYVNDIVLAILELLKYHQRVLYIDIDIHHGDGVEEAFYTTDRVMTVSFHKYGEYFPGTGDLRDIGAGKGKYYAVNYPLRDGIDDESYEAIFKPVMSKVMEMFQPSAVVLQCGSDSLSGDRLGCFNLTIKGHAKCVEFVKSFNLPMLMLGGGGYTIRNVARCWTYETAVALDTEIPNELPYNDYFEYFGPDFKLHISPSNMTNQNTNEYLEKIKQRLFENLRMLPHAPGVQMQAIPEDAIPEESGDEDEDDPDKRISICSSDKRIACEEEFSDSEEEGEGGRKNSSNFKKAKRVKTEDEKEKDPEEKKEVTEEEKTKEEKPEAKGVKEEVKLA
- method: Inhibition of human recombinant HDAC1 expressed in insect Sf9 cells
measurement.type: IC50 (nM)

// known answers, use as guide
- compound: "Nc1ccccc1NC(=O)c1ccc(Cn2c(=O)c3ccccc3n(CCN3CCOCC3)c2=O)cc1"
  IC50 / nM: 400
- compound: "Nc1ccccc1NC(=O)c1ccc(Cc2coc3ccccc3c2=O)cc1"
  IC50 / nM: 30
- compound: "Nc1ccccc1NC(=O)c1ccc(Cn2cnc3ccccc3c2=O)cc1"
  IC50 / nM: 100
- compound: "Nc1ccccc1NC(=O)c1ccc(Cn2c(=O)[nH]c3ccccc3c2=O)cc1"
  IC50 / nM: 60
- compound: "Nc1ccccc1NC(=O)c1ccc(CC2COc3ccccc3C2)cc1 (centres undefined)"
  IC50 / nM: 1000
- compound: "Cc1nc2ccccc2c(=O)n1Cc1ccc(C(=O)Nc2ccccc2N)cc1"
  IC50 / nM: 80

(1) Nc1ccccc1NC(=O)c1ccc(CN2Cc3ccccc3C2=O)cc1
(2) CCn1c(=O)n(Cc2ccc(C(=O)Nc3ccccc3N)cc2)c(=O)c2sccc21
(3) Nc1ccccc1NC(=O)c1ccc(Cn2c(=O)[nH]c3ccsc3c2=O)cc1
Query block: Arrange the 3 entries by IC50 so the values rise. Output spec: a listing of the labels in the requested order.
Result block: 3, 1, 2
(3: 60 nM, 1: 100 nM, 2: 300 nM)

---

- System: T-24
- method: Induction of histone H4 acetylation in human T24 cells after 16 hrs by immunoblot relative to MS-275
- Assay type: functional, cell-based
- settings: T-24, 16 h
measurement.type: EC50 (µM)

- molecule: "Nc1ccccc1NC(=O)c1ccc(Cn2c(=O)[nH]c3ccsc3c2=O)cc1"
  units: "µM"
  EC50: 1

(A) Nc1ccccc1NC(=O)c1ccc(Cn2cnc3ccsc3c2=O)cc1
(B) Nc1ccccc1NC(=O)c1ccc(Cn2c(=O)c3ccccc3n(CCN3CCOCC3)c2=O)cc1
Query block: For the pair A and B , which entry has the numerically smaller recorded EC50? Select an item and report its label.
Result block: A

(A) Nc1ccccc1NC(=O)c1ccc(Cc2coc3ccccc3c2=O)cc1
(B) Nc1ccccc1NC(=O)c1ccc(CC2COc3ccccc3C2)cc1 (centres undefined)
Query block: Which of the two items, A and B , has the greater recorded EC50? Select an item and report its label.
Result block: B
(B: 3 µM, A: 1 µM)

---

- Test system: T-24
- method: Induction of histone H4 acetylation in human T24 cells after 16 hrs by immunoblot relative to MS-275
- Format: functional, cell-based
- settings: T-24, 16 h
pEC50: −log10 of the molar value.
measurement.type: pEC50

// known answers, use as guide
- molecule: "Nc1ccccc1NC(=O)c1ccc(CN2Cc3ccccc3C2=O)cc1"
  reported.value: 6.00
- molecule: "Cn1c(=O)n(Cc2ccc(C(=O)Nc3ccccc3N)cc2)c(=O)c2ccccc21"
  reported.value: 6.00
- molecule: "CN(C)CCn1c(=O)n(Cc2ccc(C(=O)Nc3ccccc3N)cc2)c(=O)c2ccccc21"
  reported.value: 6.00

(1) Nc1ccccc1NC(=O)c1ccc(Cn2c(=O)oc3ccccc3c2=O)cc1
(2) Nc1ccccc1NC(=O)c1ccc(CN2C(=O)c3ccccc3C2=O)cc1
Query block: For the pair 1 and 2 , which entry has the numerically smaller recorded pEC50? Select an item and report its label.
Result block: 2
(2: 5.30, 1: 6.00)

(P) Nc1ccccc1NC(=O)c1ccc(Cn2nnc3ccccc3c2=O)cc1
(Q) Nc1ccccc1NC(=O)c1ccc(CC2COc3ccccc3C2=O)cc1 (stereo not given)
Query block: For the pair P and Q , which entry has the numerically smaller recorded pEC50? Select an item and report its label.
Result block: Q
(Q: 5.70, P: 6.00)
